Test system: Escherichia coli TOP10
Test: shrunken log2 fold change of peptide-encoding DNA abundance (4.5 h post-induction vs induction); higher = less antimicrobial activity (less host growth inhibition)
Conditions: time post-induction: 4.5 h; library: site-saturation at positions 5, 18, 19, 20
Consider the following sequences and their measured shrunken log2 fold change readings.

Look over these answered cases.
Task: Give the measured shrunken log2 fold change for RRIRVRPPRLPRPRPRPKVPPRP
Result: -0.00247

Task: Give the measured shrunken log2 fold change for RRIRTRPPRLPRPRPRPWIWPRP
Result: -0.0307

Task: Give the measured shrunken log2 fold change for RRIRKRPPRLPRPRPRPMGWPRP
Result: 0.31

Task: Give the measured shrunken log2 fold change for RRIRQRPPRLPRPRPRPGWRPRP
Result: 2.71

Attention now shifts to the item below.
Task: Give the measured shrunken log2 fold change for RRIRIRPPRLPRPRPRPFHQPRP
Result: -0.961

###

Consider the following sequences and their measured shrunken log2 fold change readings.
System: Escherichia coli TOP10
Test: shrunken log2 fold change of peptide-encoding DNA abundance (4.5 h post-induction vs induction); higher = less antimicrobial activity (less host growth inhibition)
Details: time post-induction: 4.5 h; library: site-saturation at positions 5, 18, 19, 20

Look over these answered cases.
Task: // fetch shrunken log2 fold change; item: RRIRQRPPRLPRPRPRPNGIPRP ; system: Escherichia coli TOP10
Result: -0.0272

Task: // fetch shrunken log2 fold change; item: RRIRERPPRLPRPRPRPFLVPRP ; system: Escherichia coli TOP10
Result: -0.119

Task: // fetch shrunken log2 fold change; item: RRIRPRPPRLPRPRPRPRPFPRP ; system: Escherichia coli TOP10
Result: 0.248

More entries:
Task: // fetch shrunken log2 fold change; item: RRIRKRPPRLPRPRPRPIQEPRP ; system: Escherichia coli TOP10
Result: 0.000523

Task: // fetch shrunken log2 fold change; item: RRIRLRPPRLPRPRPRPRATPRP ; system: Escherichia coli TOP10
Result: 0.228

###

Consider the following sequences and their measured shrunken log2 fold change readings.
Test system: Escherichia coli TOP10
Test: shrunken log2 fold change of peptide-encoding DNA abundance (4.5 h post-induction vs induction); higher = less antimicrobial activity (less host growth inhibition)
Conditions: time post-induction: 4.5 h; library: site-saturation at positions 5, 18, 19, 20
Kindly provide the number alone.

Task: Give the measured shrunken log2 fold change for RRIRDRPPRLPRPRPRPIWVPRP
Result: -0.0618

Task: Give the measured shrunken log2 fold change for RRIRNRPPRLPRPRPRPHRFPRP
Result: 0.0175

Task: Give the measured shrunken log2 fold change for RRIRVRPPRLPRPRPRPCFKPRP
Result: -0.243

Task: Give the measured shrunken log2 fold change for RRIRCRPPRLPRPRPRPSKLPRP
Result: -0.674

Task: Give the measured shrunken log2 fold change for RRIRVRPPRLPRPRPRPDRTPRP
Result: -0.252

More entries:
Task: Give the measured shrunken log2 fold change for RRIRLRPPRLPRPRPRPTEDPRP
Result: -0.0182

Task: Give the measured shrunken log2 fold change for RRIRMRPPRLPRPRPRPANCPRP
Result: -0.242

Task: Give the measured shrunken log2 fold change for RRIRWRPPRLPRPRPRPYAFPRP
Result: 0.107

###

System: Escherichia coli TOP10;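 further: peptides expressed intracellularly from a pBAD plasmid library in pooled LB shake-flask culture, induced with 0.3% L-arabinose, DNA abundance read by NGS, three biological replicates, DESeq2 with apeglm shrinkage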
Test: shrunken log2 fold change of peptide-encoding DNA abundance (4.5 h post-induction vs induction); higher = less antimicrobial activity (less host growth inhibition)
Settings: time post-induction: 4.5 h; library: site-saturation at positions 5, 18, 19, 20
Returns the class for an entry based on its shrunken log2 fold change. Class ranges: low interval: < -0.07; middle interval: ≥ -0.07 and < 0.04; high interval: ≥ 0.04

Solved cases (5 shown):
Task: Categorize the following entry: RRIRSRPPRLPRPRPRPNDFPRP
Result: low interval

Task: Categorize the following entry: RRIRGRPPRLPRPRPRPRTMPRP
Result: high interval

Task: Categorize the following entry: RRIRGRPPRLPRPRPRPYLVPRP
Result: high interval

Task: Categorize the following entry: RRIRLRPPRLPRPRPRPMIGPRP
Result: middle interval

Task: Categorize the following entry: RRIRERPPRLPRPRPRPGCMPRP
Result: middle interval

More entries:
Task: Categorize the following entry: RRIRYRPPRLPRPRPRPLQNPRP
Result: high interval

Task: Categorize the following entry: RRIRHRPPRLPRPRPRPKSEPRP
Result: middle interval

Task: Categorize the following entry: RRIRGRPPRLPRPRPRPVTSPRP
Result: high interval

Task: Categorize the following entry: RRIRTRPPRLPRPRPRPMYKPRP
Result: middle interval

Task: Categorize the following entry: RRIRHRPPRLPRPRPRPMGTPRP
Result: middle interval

Task: Categorize the following entry: RRIRYRPPRLPRPRPRPFCQPRP
Result: middle interval

Task: Categorize the following entry: RRIRTRPPRLPRPRPRPNVYPRP
Result: low interval

Task: Categorize the following entry: RRIRRRPPRLPRPRPRPHHRPRP
Result: high interval

Task: Categorize the following entry: RRIRPRPPRLPRPRPRPSFVPRP
Result: low interval

Task: Categorize the following entry: RRIRPRPPRLPRPRPRPVYVPRP
Result: low interval

Task: Categorize the following entry: RRIRRRPPRLPRPRPRPNMFPRP
Result: middle interval
